system: NB4 cell line; assay: leukemia cell growth inhibition, MTT; type: cell-based; details: Homo sapiens, NB-4; NB4, 72 h
assayEndpoint: IC50

Solved entries:
>  <compound>
CN1CCN(CCCNC(=O)C2C[C@]3(C)[C@H]4CC=C5[C@@H]6CC(C)(C)CC[C@]6(C(=O)O)CC[C@@]5(C)[C@]4(C)CC[C@H]3C(C)(C)C2=O)CC1 (stereo partly drawn)

>  <IC50>
8.95 µg/mL

$$$$
>  <compound>
CCC(C)CNC(=O)C1C[C@@]2(C)C(CC[C@]3(C)C2CC=C2C4CC(C)(C)CC[C@]4(C(=O)OC)CC[C@]23C)C(C)(C)C1=O (stereo partly drawn)

>  <IC50>
> 16 µg/mL

$$$$

What value of IC50 has been recorded for this entry: CCOCCNC(=O)C1C[C@@]2(C)C(CC[C@]3(C)C2CC=C2C4CC(C)(C)CC[C@]4(C(=O)OC)CC[C@]23C)C(C)(C)C1=O (stereo partly drawn)
10.7 µg/mL

What value of IC50 has been recorded for this entry: CCN(CC)CCNC(=O)C1C[C@@]2(C)C(CC[C@]3(C)C2CC=C2C4CC(C)(C)CC[C@]4(C(=O)O)CC[C@]23C)C(C)(C)C1=O (stereo partly drawn)
7.32 µg/mL

What value of IC50 has been recorded for this entry: COC(=O)[C@]12CCC(C)(C)CC1C1=CCC3[C@@]4(C)CC(C(=O)NCCc5cccnc5)C(=O)C(C)(C)C4CC[C@@]3(C)[C@]1(C)CC2 (stereo partly drawn)
4.57 µg/mL

What value of IC50 has been recorded for this entry: COC(=O)[C@]12CCC(C)(C)CC1C1=CCC3[C@@]4(C)CC(C(=O)NCCC(C)C)C(=O)C(C)(C)C4CC[C@@]3(C)[C@]1(C)CC2 (stereo partly drawn)
> 16 µg/mL

###

test system: CNE cell line; assay: solid tumor cell growth inhibition, MTT; assay type: cell-based; conditions: Homo sapiens, 72 h
Reported IC50 by item:

What value of IC50 has been recorded for this entry: CN1CCN(CCCNC(=O)C2C[C@]3(C)[C@H]4CC=C5[C@@H]6CC(C)(C)CC[C@]6(C(=O)O)CC[C@@]5(C)[C@]4(C)CC[C@H]3C(C)(C)C2=O)CC1 (stereo partly drawn)
> 16 µg/mL

What value of IC50 has been recorded for this entry: COC(=O)[C@]12CCC(C)(C)CC1C1=CCC3[C@@]4(C)CC(C(=O)NCCCN(C)C)C(=O)C(C)(C)C4CC[C@@]3(C)[C@]1(C)CC2 (stereo partly drawn)
3.89 µg/mL

What value of IC50 has been recorded for this entry: CCN(CC)CCCNC(=O)C1C[C@@]2(C)C(CC[C@]3(C)C2CC=C2C4CC(C)(C)CC[C@]4(C(=O)O)CC[C@]23C)C(C)(C)C1=O (stereo partly drawn)
> 16 µg/mL

###

test system: RKO cell line; test: solid tumor cell growth inhibition, MTT; type: cell-based; conditions: Homo sapiens, 72 h
Reported IC50 by item:
Entry rule: numbers only, all in µg/mL.

Solved entries:
>  <compound>
COC(=O)[C@]12CCC(C)(C)CC1C1=CCC3[C@@]4(C)CC(C(=O)NCCCN5CCOCC5)C(=O)C(C)(C)C4CC[C@@]3(C)[C@]1(C)CC2 (stereo partly drawn)

>  <unit>
µg/mL

>  <IC50>
14.4

$$$$
>  <compound>
COC(=O)[C@]12CCC(C)(C)CC1C1=CCC3[C@@]4(C)CC(C(=O)NCCCN(C)C)C(=O)C(C)(C)C4CC[C@@]3(C)[C@]1(C)CC2 (stereo partly drawn)

>  <unit>
µg/mL

>  <IC50>
3.29

$$$$

Query compound follows.
// map COC(=O)[C@]12CCC(C)(C)CC1C1=CCC3[C@@]4(C)CC(C(=O)NCCN5CCCC5)C(=O)C(C)(C)C4CC[C@@]3(C)[C@]1(C)CC2 (stereo partly drawn) to recorded IC50 (system: RKO cell line)
3.19
